# TEST DETAILS: qHTS assay to identify small molecule antagonists of the estrogen receptor alpha (ER-alpha) signaling pathway using the BG1 cell line in the presence of 0.1 nM 17-beta-estradiol - cell viability counter screen (AID 1259241); also: nearly all actives have a fitted effect of over 40% in size
# MEASUREMENT SETUP: VM7Luc4E2 (BG1) viability, CellTiter-Fluor protease, 22 h, 0.1 nM estradiol agonist added; series mostly up to 92.4 µM
Records with an inconclusive call do not appear. The source made the active and inactive calls. Calls follow the shape of the dose curve; as a rule, active = well fitted cell-killing curve with a large enough effect in the repeat runs; inconclusive = weak or mixed curves, or effect the other way; inactive = flat fitted curve, though single readings scatter.
Just give me one of these, please: active, inactive

Some entries whose results are on file:
>  <COMPOUND>
CCOP(=O)(OCC)SCCSCC

>  <ASSIGNED CATEGORY>
inactive

$$$$
>  <COMPOUND>
CCOC(=O)CBr

>  <ASSIGNED CATEGORY>
inactive

$$$$
>  <COMPOUND>
CC(=O)[C@H]1CC[C@H]2[C@@H]3CC[C@H]4C[C@](C)(O)CC[C@]4(C)[C@H]3CC[C@]12C

>  <ASSIGNED CATEGORY>
inactive

$$$$
>  <COMPOUND>
O=[N+]([O-])c1ccc(F)c([N+](=O)[O-])c1

>  <ASSIGNED CATEGORY>
active

$$$$
>  <COMPOUND>
Cc1ccc(-c2c(Cl)nc(C#N)n2S(=O)(=O)N(C)C)cc1

>  <ASSIGNED CATEGORY>
inactive

$$$$
>  <COMPOUND>
COC(C)(C)CCC[C@H](C)C/C=C/C(C)=C/C(=O)OC(C)C

>  <ASSIGNED CATEGORY>
inactive

$$$$
>  <COMPOUND>
CCOc1nc(F)cc2nc(S(=O)(=O)Nc3c(Cl)cccc3Cl)nn12

>  <ASSIGNED CATEGORY>
inactive

$$$$
>  <COMPOUND>
CCOC(=O)C(Cl)C(C)=O (configuration not stated)

>  <ASSIGNED CATEGORY>
inactive

$$$$
>  <COMPOUND>
Sc1ccccc1Cl

>  <ASSIGNED CATEGORY>
inactive

$$$$
>  <COMPOUND>
O=C(CBr)OCc1ccccc1

>  <ASSIGNED CATEGORY>
inactive

$$$$

Query: Dear colleague, could you share the recorded outcome for CCC(Br)(CC)C(=O)NC(N)=O when you have a moment?
Result: inactive

Query: Dear colleague, could you share the recorded outcome for Cc1ccccc1C(=O)Nc1cccc(OC(C)C)c1 when you have a moment?
Result: inactive

Query: Dear colleague, could you share the recorded outcome for O=S(=O)(O)C(F)(F)C(F)(F)C(F)(F)C(F)(F)F when you have a moment?
Result: inactive

Query: Dear colleague, could you share the recorded outcome for O=[N+]([O-])c1cc(C(F)(F)F)cc([N+](=O)[O-])c1Cl when you have a moment?
Result: inactive

Query: Dear colleague, could you share the recorded outcome for CC(C)O.CC(C)O.OCCN(CCO)CCO.OCCN(CCO)CCO.[Ti] when you have a moment?
Result: inactive

Query: Dear colleague, could you share the recorded outcome for C=CC(=O)NCNC(=O)C=C when you have a moment?
Result: inactive

Query: Dear colleague, could you share the recorded outcome for O=C(CCl)c1ccc(Cl)cc1Cl when you have a moment?
Result: inactive

Query: Dear colleague, could you share the recorded outcome for CCCCCCCCOC(=O)c1ccc(C(=O)OCCCCCCCC)c(C(=O)OCCCCCCCC)c1 when you have a moment?
Result: inactive
